assay.remarks: In Vitro GIRK Thallium Flux Assay (2.5 minutes): Human Embryonic Kidney (HEK-293) cell lines co-expressing rat mGlu receptors 2, 3, 4, 6, 7 or 8 and G protein-coupled inwardly-rectifying potassium (GIRK) channels_ENREF_54 were grown in Growth Media containing 45% DMEM, 45% F-12, 10% FBS, 20 mM HEPES, 2 mM L-glutamine, antibiotic/antimycotic, non-essential amino acids, 700 μg/ml G418, and 0.6 μg/ml puromycin at 37° C. in the presence of 5% CO2. All cell culture reagents were purchased from Invitrogen Corp. (Carlsbad, Calif.) unless otherwise noted. Compound activity at the group II (mGlu2 and mGlu3) mGlus was assessed using thallium flux through GIRK channels. Briefly, cells were plated into 384-well, black-walled, clear-bottomed poly-D-lysine-coated plates at a density of 15,000 cells/20 μL/well in DMEM containing 10% dialyzed FBS, 20 mM HEPES, and 100 units/mL penicillin/streptomycin (assay media). Plated cells were incubated overnight at 37° C. in the presence of 5% CO2. The following day, the medium was exchanged from the cells to assay buffer [Hanks' balanced salt solution (Invitrogen) containing 20 mM HEPES, pH 7.3] using an ELX405 microplate washer (BioTek), leaving 20 μL/well, followed by the addition of 20 μL/well FluoZin2-AM (330 nM final concentration) indicator dye (Invitrogen; prepared as a stock in DMSO and mixed in a 1:1 ratio with Pluronic acid F-127) in assay buffer. Cells were incubated for 1 h at room temperature, and the dye exchanged to assay buffer using an ELX405, leaving 20 μL/well. Test compounds were diluted to 2 times their final desired concentration in assay buffer (0.3% DMSO final concentration). Agonists were diluted in thallium buffer [125 mM sodium bicarbonate (added fresh the morning of the experiment), 1 mM magnesium sulfate, 1.8 mM calcium sulfate, 5 mM glucose, 12 mM thallium sulfate, and 10 mM HEPES, pH 7.3] at 5 times the final concentration to be assayed. Cell plates and compound plates were loaded onto a kinetic imaging plate reader (FDSS 6000 or 7000; Hamamatsu Corporation, Bridgewater, N.J.). Appropriate baseline readings were taken (10 images at 1 Hz; excitation, 470±20 nm; emission, 540±30 nm) and test compounds were added in a 20 μL volume and incubated for either 2.5 min or 60 min as indicated before the addition of 10 μL of thallium buffer with or without agonist. After the addition of agonist, data were collected for approximately an additional 2.5 min. Data were analyzed using Excel (Microsoft Corp, Redmond, Wash.). The slope of the fluorescence increase beginning 5 s after thallium/agonist addition and ending 15 s after thallium/agonist addition was calculated, corrected to vehicle and maximal agonist control slope values, and plotted in using either XLfit (ID Business Solutions Ltd) or Prism software (GraphPad Software, San Diego, Calif.) to generate concentration-response curves. Potencies were calculated from fits using a four-point parameter logistic equation. For concentration-response curve experiments, compounds were serially diluted 1:3 into 10 point concentration response curves and were transferred to daughter plates using an Echo acoustic plate reformatter (Labcyte, Sunnyvale, Calif.). Test compounds were applied and followed by EC80 concentrations of glutamate.
test.settings: HEK293, 2.5 min
pEC50: −log10 of the molar value.
For each record, write down the corresponding pEC50.

Please report the measured pEC50 for Fc1ccc(-c2ccc(-c3csc(-c4ccccc4)n3)s2)cc1
< 5.00

Please report the measured pEC50 for Fc1ccc(-c2cccc(-c3csc(-c4cc5ccccc5s4)n3)c2)cc1
< 5.00

Please report the measured pEC50 for Fc1ccc(-c2cccc(-c3csc(-c4ccco4)n3)c2)cc1
< 5.00

Please report the measured pEC50 for Cn1nc(-c2cccc(-c3ccccc3)c2)nc1-c1ccccc1
< 5.00

Please report the measured pEC50 for Fc1cccc(-n2nc(-c3cccc(-c4ccccc4)c3)nc2-c2ccccc2)c1
< 5.00

Please report the measured pEC50 for COc1ccccc1-c1cccc(-c2csc(-c3ccccc3)n2)c1
< 5.00
